Origin of values: patent US20150368338A1

Target: T1, IFN-αJ1 (human, UniProt P01567 24-189)
T1 construct: Recombinant, HEK293; also called IFN-α7
Experiment: ProteOn SPR, cell supernatant;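 note: each binding measurement used just a single antigen concentration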
Flag rule - Kd less than 0.06 nM flags yes; the remaining entries get no.

Exercise: Given IFWM3385 (antibody, IgG1, V domains shown, mAb; IgG1/kappa said of the parent and of selected mAbs; also called IFWB3120) VH: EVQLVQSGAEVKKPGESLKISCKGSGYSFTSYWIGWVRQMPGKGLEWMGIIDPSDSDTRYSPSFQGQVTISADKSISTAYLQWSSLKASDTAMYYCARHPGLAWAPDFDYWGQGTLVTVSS VL: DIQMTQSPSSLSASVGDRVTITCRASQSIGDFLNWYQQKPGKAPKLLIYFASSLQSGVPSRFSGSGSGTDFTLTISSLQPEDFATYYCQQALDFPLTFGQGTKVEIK , is recorded Kd strictly lower than 0.06 nM?
Key: no

Exercise: Given IFWM3406 (antibody, IgG1, V domains shown, mAb; IgG1/kappa said of the parent and of selected mAbs; also called IFWB3141) VH: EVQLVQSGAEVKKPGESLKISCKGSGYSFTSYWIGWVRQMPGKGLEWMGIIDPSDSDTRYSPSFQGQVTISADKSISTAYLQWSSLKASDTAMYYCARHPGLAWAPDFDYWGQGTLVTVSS VL: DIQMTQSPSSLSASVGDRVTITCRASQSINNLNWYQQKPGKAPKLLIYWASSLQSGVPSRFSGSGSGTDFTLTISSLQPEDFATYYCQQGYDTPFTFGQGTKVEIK , is recorded Kd strictly lower than 0.06 nM?
Key: no

Exercise: Given IFWM3389 (antibody, IgG1, V domains shown, mAb; IgG1/kappa said of the parent and of selected mAbs; also called IFWB3124) VH: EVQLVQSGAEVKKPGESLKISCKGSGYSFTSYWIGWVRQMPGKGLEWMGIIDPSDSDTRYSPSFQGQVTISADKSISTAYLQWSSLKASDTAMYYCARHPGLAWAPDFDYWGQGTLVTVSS VL: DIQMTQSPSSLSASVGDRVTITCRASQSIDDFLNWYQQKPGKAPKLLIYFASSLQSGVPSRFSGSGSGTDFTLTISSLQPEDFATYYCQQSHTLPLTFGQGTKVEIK , is recorded Kd strictly lower than 0.06 nM?
Key: yes

Exercise: Given IFWM3399 (antibody, IgG1, V domains shown, mAb; IgG1/kappa said of the parent and of selected mAbs; also called IFWB3134) VH: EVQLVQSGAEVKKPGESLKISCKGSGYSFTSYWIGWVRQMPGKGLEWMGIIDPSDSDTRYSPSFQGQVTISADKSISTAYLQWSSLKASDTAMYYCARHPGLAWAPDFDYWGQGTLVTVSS VL: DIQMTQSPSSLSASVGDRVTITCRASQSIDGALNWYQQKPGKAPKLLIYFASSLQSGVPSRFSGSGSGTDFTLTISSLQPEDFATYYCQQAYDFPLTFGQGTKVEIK , is recorded Kd strictly lower than 0.06 nM?
Key: yes

Exercise: Given IFWM3376 (antibody, IgG1, V domains shown, mAb; IgG1/kappa said of the parent and of selected mAbs; also called IFWB3111) VH: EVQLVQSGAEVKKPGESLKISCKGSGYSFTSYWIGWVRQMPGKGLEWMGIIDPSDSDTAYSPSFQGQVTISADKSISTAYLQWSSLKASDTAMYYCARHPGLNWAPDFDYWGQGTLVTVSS VL: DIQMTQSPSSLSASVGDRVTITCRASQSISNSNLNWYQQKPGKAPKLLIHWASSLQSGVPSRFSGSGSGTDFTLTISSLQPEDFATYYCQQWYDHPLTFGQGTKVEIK , is recorded Kd strictly lower than 0.06 nM?
Key: no

Exercise: Given IFWM3293 (antibody, IgG1, V domains shown, mAb; IgG1/kappa said of the parent and of selected mAbs; also called IFWB3028) VH: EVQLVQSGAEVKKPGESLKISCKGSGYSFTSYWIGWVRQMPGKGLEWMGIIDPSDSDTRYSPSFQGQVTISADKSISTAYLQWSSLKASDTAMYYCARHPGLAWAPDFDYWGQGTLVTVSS VL: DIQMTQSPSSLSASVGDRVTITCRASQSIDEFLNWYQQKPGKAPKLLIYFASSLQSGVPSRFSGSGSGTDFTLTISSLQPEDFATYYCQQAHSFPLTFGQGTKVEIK , is recorded Kd strictly lower than 0.06 nM?
Key: no
